Reference source for all entries: ChEMBL document CHEMBL5316362

assay: Inhibition of almond beta-glucosidase at 100 uM relative to control; set-up: species or system Prunus dulcis
pIC50: −log10 of the molar value.

# Molecule, pIC50
measured = [
    ("CCCCCCCC[C@H]1N[C@H](CO)[C@@H](O)[C@H](O)[C@H]1O", 3.76),
]

====

// pIC50 lookup, one value per entry
assay: Inhibition of rice alpha glucosidase; parameters: species or system Oryza sativa
pIC50: −log10 of the molar value.

# Molecule, pIC50
measured = [
    ("CCCCCCCC[C@H]1N[C@H](CO)[C@@H](O)[C@H](O)[C@H]1O", 6.15),
    ("O=C(O)C(F)(F)F.OC[C@H]1N[C@H](CCCCCCCCCc2ccc(O)cc2)[C@H](O)[C@@H](O)[C@@H]1O", 6.40),
]
